Target: UniProtKB P03956
Sequence (P03956 whole entry): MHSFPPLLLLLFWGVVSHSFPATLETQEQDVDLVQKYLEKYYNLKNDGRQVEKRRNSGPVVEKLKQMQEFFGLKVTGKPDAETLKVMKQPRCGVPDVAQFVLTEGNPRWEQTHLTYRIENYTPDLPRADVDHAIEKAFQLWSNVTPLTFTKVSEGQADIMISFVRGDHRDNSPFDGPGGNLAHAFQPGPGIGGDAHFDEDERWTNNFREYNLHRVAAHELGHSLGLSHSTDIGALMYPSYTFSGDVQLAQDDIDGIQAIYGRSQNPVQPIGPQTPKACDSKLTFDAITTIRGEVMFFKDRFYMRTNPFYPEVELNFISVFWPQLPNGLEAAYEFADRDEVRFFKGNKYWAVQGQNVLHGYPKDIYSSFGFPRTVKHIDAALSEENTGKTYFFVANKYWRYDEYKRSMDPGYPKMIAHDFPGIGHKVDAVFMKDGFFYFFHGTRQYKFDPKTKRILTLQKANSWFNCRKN
Assay read-out Ki on UniProtKB P03956; records merged from the literature.
We label by threshold. Values of Ki strictly beneath 0.2 µM are 1. Values of 0.2 µM and up are -1.

Data request: Dear colleague, could you confirm whether Ki of CNC(=O)[C@H](Cc1ccc(OC)cc1)NS(=O)(=O)C(CC(=O)O)CC(C)C (stereo not given in full) falls below 0.2 µM? Thanks.
Data returned: -1

Data request: Input O=C(CNC(=O)c1ccc(Oc2ccncc2)cc1)NO ; condition: Ki strictly below 0.2 µM. Does it hold?
Data returned: 1

Data request: Dear reviewer, please state whether C[C@H](NC(=O)[C@H](Cc1ccccc1)NS(=O)(=O)c1ccc(I)cc1)C(=O)Nc1n[nH]c(=S)s1 has Ki strictly beneath 0.2 µM.
Data returned: -1

Data request: Strictly below 0.2 µM: is that where Ki of O=C(Nc1nnc(S)s1)N[C@@H](Cc1ccccc1)C(=O)NCc1ccccc1 sits?
Data returned: -1

Data request: hey, is Ki for CC(=O)N1CCC[C@@H]1C(=O)NCCCCP(=O)(O)C[C@@H](CCc1ccccc1)C(=O)N[C@@H](CC(C)C)C(=O)Nc1ccccc1 lower than 0.2 µM or not?
Data returned: -1

Data request: Item O=C(Nc1nnc(S)s1)N[C@@H](Cc1ccccc1)C(=O)N1CCSCC1 : Ki beneath 0.2 µM, strictly?
Data returned: -1

Data request: Hello, is Ki of the following compound strictly smaller than 0.2 µM? CNC(=O)[C@H](Cc1ccc(OC)cc1)NC(=O)Nc1nnc(S)s1
Data returned: -1

Data request: # check: Ki < 0.2 µM for O=C(CNS(=O)(=O)c1ccc(Oc2ccc(Cl)cc2)cc1)NO
Data returned: 1

Data request: Does this compound meet the criterion Ki < 0.2 µM? Cc1cc(COc2ccc(NC(=O)[C@H]3CCN(C(=O)NC(C)(C)C)C[C@@H]3C(=O)NO)cc2)c2ccccc2n1
Data returned: -1

Data request: I'd appreciate it if you could check whether O=C(NO)[C@H]1CCCC[C@@H]1C(=O)Nc1ccc(OCc2ccccc2)cc1 has Ki smaller than 0.2 µM.
Data returned: -1

Data request: Ki under 0.2 µM? Item: CC(=O)N1CC[C@H](C(=O)Nc2ccc(COc3ccnc4ccccc34)cc2)[C@@H](C(=O)NO)C1
Data returned: -1

Data request: Below 0.2 µM on Ki? Entry C[C@H](C(=O)NO)N1CCNc2cc(Oc3ccc(C(F)(F)F)cc3)ccc2S1(=O)=O
Data returned: -1

Data request: Dear colleague, could you confirm whether Ki of CC(C)C[C@H](NC(=O)[C@H](CCc1ccccc1)CP(=O)(O)CCC(=O)NCCCc1ccccc1)C(=O)Nc1ccccc1 falls below 0.2 µM? Thanks.
Data returned: -1

Data request: Ki under 0.2 µM? Item: Cc1cc(COc2ccc(N3CC[C@H]([C@H](NC(=O)c4ccccc4)C(=O)NO)C3=O)cc2)c2ccccc2n1
Data returned: -1

Data request: Item CCCCN1CCC(C(=O)NO)C(CS(=O)(=O)c2ccc(OCc3cc(C)nc4ccccc34)cc2)C1 (stereo not given) : Ki beneath 0.2 µM, strictly?
Data returned: -1

Data request: Quick check: does Cc1cc(C)cc(COc2ccc3c(c2)NCCN([C@H](C)C(=O)NO)S3(=O)=O)c1 have Ki under 0.2 µM?
Data returned: -1

Data request: Does the reported Ki of the following compound sit strictly below 0.2 µM? CC(C)C[C@H](NC(=O)[C@H](CCc1cccc(Cl)c1)N[C@H](C)C(=O)O)C(=O)Nc1ccccc1
Data returned: -1

Data request: Is Ki strictly under 0.2 µM for the entry O=C(O)CCNC(=O)[C@H](CC1CCCCC1)NC(=O)[C@H](CCCc1ccc(Cl)cc1)CC(=O)NO ?
Data returned: 1

Data request: Ki strictly < 0.2 µM for this compound? CNC(=O)[C@@H]1CCCCNC(=O)C[C@H](C(=O)O)N[C@@H](CCc2ccccc2)C(=O)N1
Data returned: -1

Data request: Could you please tell me whether Ki recorded for CNC(=O)[C@@H](NC(=O)[C@H](CCCCOc1ccc(OC)cc1)CC(=O)NO)C(C)(C)C is less than 0.2 µM?
Data returned: 1

Data request: Ki strictly < 0.2 µM for this compound? CC(C)C[C@H](NC(=O)[C@H](CCc1cccc(O)c1)N[C@H](C)C(=O)O)C(=O)Nc1ccccc1
Data returned: -1

Data request: Ki strictly < 0.2 µM for this compound? CC(C)C[C@H](CC(=O)NO)C(=O)N[C@@H](Cc1c[nH]c2ccccc12)C(=O)NCCN(C)C
Data returned: 1

Data request: # strict comparison: is reported Ki < 0.2 µM? input = Cc1ccc(CCC[C@H](CC(=O)NO)C(=O)N[C@@H](CC2CCCCC2)C(=O)NCCCCN(C)C)cc1
Data returned: -1

Data request: Below 0.2 µM on Ki? Entry O=C(Nc1nnc(S)s1)N[C@@H](Cc1ccccc1)C(=O)N1CCN(c2ccccn2)CC1
Data returned: -1

Data request: Decide: Ki of CCCc1ccc(CC[C@H](C[C@H](C)C(=O)O)C(=O)N[C@@H](CC(C)C)C(=O)Nc2ccccc2)cc1 strictly below 0.2 µM?
Data returned: -1

Data request: Lab note: Ki threshold 0.2 µM. Does this compound come in strictly under it? O=C(CNS(=O)(=O)c1ccc(C(F)(F)F)cc1)NO
Data returned: 1

Data request: Hi there! Is Ki for O=C(NO)C1(S(=O)(=O)c2ccc(OCCCc3nnnn3-c3ccc(OC(F)(F)F)cc3)cc2)CCOCC1 below 0.2 µM, do you know?
Data returned: -1

Data request: Does this compound meet the criterion Ki < 0.2 µM? O=C(C[C@@H](CCCCc1ccccc1)C(=O)N[C@@H](CC1CCCCC1)C(=O)NCCc1ccccc1)NO
Data returned: -1

Data request: Lab note: confirm whether the reported Ki for this compound is below 0.2 µM, equality not counting. compound: CCCc1ccc(CC[C@H](N[C@H](C)C(=O)O)C(=O)N[C@@H](CC(C)C)C(=O)Nc2ccccc2)cc1
Data returned: -1

Data request: Hello, I'm reviewing records and need to know if Ki of CC[C@H](C)C(NC(=O)[C@H](CC(C)C)[C@H](C)N(O)C=O)C(=O)Nc1nccs1 (single isomer, unassigned) is below 0.2 µM. Could you check?
Data returned: 1

Data request: Check if Ki falls below 0.2 µM for CNC(=O)[C@@H](NC(=O)[C@H](CCCCOc1ccc(C(C)C)cc1)CC(=O)NO)C(C)(C)C .
Data returned: 1

Data request: Quick check: Ki of O=C(CNS(=O)(=O)CCc1ccccc1)NO under 0.2 µM?
Data returned: -1

Data request: Does this compound meet the criterion Ki < 0.2 µM? CNC(=O)[C@@H]1CCCCNC(=O)CC[C@H](C(=O)NO)[C@@H](CC(C)C)C(=O)N1
Data returned: 1

Data request: Hello, I'm reviewing records and need to know if Ki of O=C(CC1(S(=O)(=O)c2ccc(Oc3ccccc3)cc2)CCOCC1)NO is below 0.2 µM. Could you check?
Data returned: 1

Data request: Given the entry CCC(C)[C@H](NC(=O)[C@H](CC(C)C)[C@H](CC)N(O)C=O)C(=O)Nc1ccccn1 (stereo not given in full) , would its reported Ki be below 0.2 µM?
Data returned: 1
